Recorded values, source paper PMC5540273.

Tested on: MAPKAPK5
conditionDetails: concentration: 1 μM,replicates: in singlicate; n = 1;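 note: KINOMEscan kinase panel screen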
Field: %Inh. Provide a value for each of the compounds that follow.
Report the value in % with no unit label.

Data request: %Inh lookup needed for C[C@@H]1CNc2c(sc3ccc4nc(-c5ccc(O)cc5)ccc4c23)C(=O)N1 , thanks.
Data returned: 99.9

Data request: Given the entry O=c1[nH]cc(-c2ccc(O)cc2)c2sc(-c3ccncc3)cc12 [GSK1033723] , report its measured %Inh.
Data returned: 0

Data request: Reported %Inh, compound Cn1ccc2ncnc(Oc3ccc(NC(=O)Nc4ccnc(C(F)(F)F)c4)c(Cl)c3)c21 : ____
Data returned: 0

Data request: // query %Inh value for entry C[C@@H](Oc1cc(-n2cnc3ccc(-c4ccncc4)cc32)sc1C(N)=O)c1ccccc1Cl [GSK483724]
Data returned: 0

Data request: For CCCC(=O)Nc1n[nH]c2ncccc12 [SB-601436] , what is its reported %Inh?
Data returned: 5

Data request: Value lookup for %Inh; key = Cn1ccc2ncnc(Oc3ccc(NC(=O)Nc4cccc(C(F)(F)F)c4)c(F)c3)c21
Data returned: 0

Data request: What measured %Inh goes with CS(=O)(=O)c1cccc(CNc2nc(Nc3ccc4c(c3)[C@@H]3C[C@@H]4CNC3=O)ncc2C(F)(F)F)c1 ?
Data returned: 0

Data request: Requested field: %Inh. Item: Cn1ccc2ncnc(Oc3ccc(NC(=O)Nc4cccc(C(F)(F)F)c4)c(Cl)c3)c21
Data returned: 0

Data request: Quick one: %Inh for O=C(Nc1cccc(C(F)(F)F)c1)c1cccc(Oc2ccc3nccn3n2)c1 ?
Data returned: 51

Data request: Name the reported %Inh value associated with the compound COc1cccc(C2=C(Nc3cccc(Cl)c3)C(=O)NC2=O)c1 [SB-341556]
Data returned: 0

Data request: Any idea what its %Inh is? The compound is CN(c1cccc(CNc2nc(Nc3ccc4c(c3)CC(=O)N4)ncc2C(F)(F)F)c1)S(C)(=O)=O
Data returned: 0

Data request: Could you tell me which %Inh is on file for COc1cc2nccc(Nc3ccc(Oc4ccccc4)cc3)c2cc1OC.Cl [GI261656] ?
Data returned: 0

Data request: Quick one: %Inh of Nc1nccc(-c2ccc3c(N)n[nH]c3c2)n1 [GSK1034945] ?
Data returned: 0

Data request: # get_value(readout='%Inh', item= Cc1ccc(C(=O)Nc2ccc(Oc3ccc4nc(NC(=O)C5CC5)cn4c3)c(F)c2)c(=O)n1-c1ccccc1 )
Data returned: 0

Data request: Data request, read-out %Inh, for COc1cccc(CNC(=O)NC2CCN(c3ccnc(Nc4cc(OC)c(OC)c(OC)c4)n3)C2)c1 (centres unmarked) [GSK1379765]
Data returned: 0

Data request: Look up %Inh for this compound: C[C@@H](Oc1cc(-n2cnc3cc(-c4cnn(C)c4)ccc32)sc1C(N)=O)c1ccccc1Cl [GSK580432]
Data returned: 0

Data request: Would you kindly share the measured %Inh for CCN1CCN(CCCC(=O)Nc2n[nH]c3nc(-c4ccc(O)cc4)c(Br)cc23)CC1 [SB-731579] ?
Data returned: 0

====

Field: %Inh. Provide a value for each of the compounds that follow.
System: ERK2
Construct: gene MAPK1
conditionDetails: concentration: 1 μM,replicates: in singlicate; n = 1
Give the value in % but do not write % after it.

Data request: Entry under review: COc1cc2c(Nc3ccc(NC(=O)c4ccccc4)cc3)ncnc2cc1OCCCN1CCOCC1 [GSK301329] . Reported %Inh?
Data returned: 3

Data request: Quick one: %Inh of CN(c1cccc(CNc2nc(Nc3ccc4c(c3)CC(=O)N4)ncc2C(F)(F)F)c1)S(C)(=O)=O ?
Data returned: 41

Data request: # lookup: %Inh of Cc1nnc(-c2ccc3occ(-c4ccc(S(C)=O)cc4)c3n2)o1 (stereo not shown)
Data returned: 19

Data request: Please give the measured %Inh for this compound: COc1cc(Nc2nccc(N3CCC(NC(=O)c4cccc(C#N)c4)C3)n2)cc(OC)c1OC (stereo not shown) [GSK1379751]
Data returned: 0

====

Tested on: CLK1
conditionDetails: concentration: 1 μM,replicates: in singlicate; n = 1
Answer each item with its documented %Inh.
Entry rule: numbers only, all in %.

Data request: GET /values?readout=%Inh&item= Cn1ccc2ncnc(Oc3ccc(NC(=O)Nc4cnn(C(C)(C)C)c4)c(Cl)c3)c21
Data returned: 0

Data request: What does the data say about its %Inh? Entry: C[C@@H](Oc1cc(-n2cnc3cc(-c4ccncc4)ccc32)sc1C(N)=O)c1ccccc1Cl [GSK479719]
Data returned: 73

Data request: // %Inh lookup, key: COC(=O)c1cccc(NC(=O)NC2CCN(c3ccnc(NCc4ccc(F)cc4)n3)CC2)c1 [GSK1379860]
Data returned: 28

Data request: Suppose we examine the compound COC(=O)c1cccc(NC(=O)NC2CCN(c3ccnc(Nc4cc(OC)c(OC)c(OC)c4)n3)C2)c1 (centres unmarked) [GSK1379767] ; what %Inh value has been reported?
Data returned: 0

Data request: Recorded %Inh of COc1cccc(CNC(=O)NC2CCN(c3ccnc(Nc4cc(OC)c(OC)c(OC)c4)n3)C2)c1 (centres unmarked) [GSK1379765] , please.
Data returned: 21

Data request: For the compound C[C@@H](Oc1cc(-n2cnc3cc(-c4cnn(C)c4)ccc32)sc1C(N)=O)c1ccccc1Cl [GSK580432] , what %Inh is on record?
Data returned: 59

Data request: Item CCOC(=O)N1CCC(n2cnc(-c3ccc(F)cc3)c2-c2ccnc(N)n2)CC1 [SB-219952] has what recorded %Inh?
Data returned: 0

Data request: What does the record list as %Inh for CSc1nccc(-c2c(-c3ccc(F)cc3)ncn2CCCN2CCOCC2)n1.Cl [SB-217146] ?
Data returned: 0

====

Tested on: PIKFYVE
conditionDetails: concentration: 1 μM,replicates: in singlicate; n = 1
recordedEndpoint: %Inh (%)
Unit % implied. Number only.

Data request: Please report the recorded %Inh for CCNCC(Cc1ccccc1)NC(=O)c1cc(Br)c(-c2ccnc3[nH]ccc23)s1.Cl.Cl (centres unmarked) [GSK1383280] .
Data returned: 0

Data request: For the molecule shown here, COc1cc2nccc(Nc3ccc(Oc4ccccc4)cc3)c2cc1OC.Cl [GI261656] , give the reported %Inh.
Data returned: 5

Data request: What value of measured %Inh is listed for C[C@@H](Oc1cc(-n2cnc3cc(-c4cnn(C)c4)ccc32)sc1C(N)=O)c1ccccc1Cl [GSK580432] ?
Data returned: 61

Data request: Which %Inh is listed for O=C(Nc1ccccc1)c1cccc(Oc2ccc3nccn3n2)c1 ?
Data returned: 0

Data request: Returns the measured %Inh for the input molecule. Input: CCN1CCN(CCCC(=O)Nc2n[nH]c3nc(-c4ccc(O)cc4)c(Br)cc23)CC1 [SB-731579]
Data returned: 14

Data request: Looking for the measured %Inh of CC(C)c1nc(-c2cccc(NS(=O)(=O)c3ccccc3)c2)c(-c2ccnc(Nc3ccc4c(c3)CN(C)CC4)n2)s1 [GSK1649598] , can you help?
Data returned: 56

Data request: Form field: reported %Inh of NC(=O)Nc1sc(-c2ccc(F)cc2)cc1C(N)=O [GW789449]
Data returned: 22

Data request: Given the entry CC(=O)Nc1nc2cnc(Nc3cc(NC(=O)c4cccc(CC(C)(C)C#N)c4)ccc3C)nc2s1 , report its measured %Inh.
Data returned: 0

====

Test system: MST4
conditionDetails: concentration: 1 μM,replicates: in singlicate; n = 1
recordedEndpoint: %Inh (%)
Output spec: scalar in %, unitless text.

Data request: # %Inh lookup, item CNC(=O)c1ccccc1Nc1nc(Nc2cccc(CS(C)(=O)=O)c2)ncc1C.O=CO
Data returned: 54

Data request: Endpoint output: %Inh of COc1cc2ncn(-c3cc(OCC4CCCCC4)c(C(N)=O)s3)c2cc1OC . Value?
Data returned: 0

Data request: Given the entry COc1cc2nccc(Nc3ccc(Oc4ccccc4)cc3)c2cc1OC.Cl , report its measured %Inh.
Data returned: 0

Data request: Entry under review: Cc1ccc(CC(=O)N2CCc3cc(-c4cn(C)c5ncnc(N)c45)ccc32)cc1 . Reported %Inh?
Data returned: 35

Data request: I would be grateful if you could share the reported %Inh for Cn1ccc2ncnc(Oc3ccc(NC(=O)Nc4cccc(C(F)(F)F)c4)c(Cl)c3)c21 .
Data returned: 0

Data request: # get_value(readout='%Inh', item= Cn1cc(-c2cccc3c(N)c(C(N)=O)nnc23)cn1 )
Data returned: 40

Data request: Item COc1cccc(C2=C(Nc3cccc(Cl)c3)C(=O)NC2=O)c1 has what recorded %Inh?
Data returned: 0

Data request: What does the record list as %Inh for CN1CCN(CCCNc2nccc(-c3c(-c4ccc(F)cc4)nn4cc(C(N)=O)ccc34)n2)CC1 ?
Data returned: 0

Data request: May I ask what %Inh has been recorded for NC(=O)c1ccc(-c2cc3ncnc(SCC(=O)O)c3s2)cc1 ?
Data returned: 0
